Kindly state CC50 for each of the entries shown.
# System: MDA-MB-231 (breast adenocarcinoma)
# RUN DESCRIPTION: SRB cytotoxicity assay, MDA-MB-231
# Type: cell-based
# EXPERIMENTAL CONTEXT: Homo sapiens, MDA-MB-231; 72 h, SRB; unit inferred; read-out: LC50 MDA-MB-231

Name the recorded CC50 for C[C@@H]1C(=O)N(C(Cc2ccccc2)C(=O)OCc2ccccc2)C[C@@H](Cc2ccccc2)N1C(=O)OCc1ccccc1 (some centres unmarked) [Compound 30ab] . > 17.3 µM

Given C[C@@H]1C(=O)N(C[C@@H](Cc2ccccc2)NC(=O)OCc2ccccc2)[C@]1(Cc1ccccc1)C(=O)OCc1ccccc1 [Compound 29a] , state its recorded CC50. > 17.3 µM

Quick check: CC50 of O=C(OCc1ccccc1)C(Cc1ccccc1)N1C[C@H](Cc2ccccc2)N(C(=O)OCc2ccccc2)CC1=O (some centres unmarked) [Compound 13ab] ? > 17.8 µM

CC50 lookup needed for C[C@@H]1C(=O)N(C[C@H](Cc2ccccc2)NC(=O)OCc2ccccc2)[C@]1(Cc1ccccc1)C(=O)OCc1ccccc1 [Compound 24a] , thanks. > 17.3 µM

May I ask what CC50 has been recorded for O=C(OCc1ccccc1)C(Cc1ccccc1)N1C[C@@H](Cc2ccccc2)N(C(=O)OCc2ccccc2)CC1=O (some centres unmarked) [Compound 15ab] ? > 17.8 µM
